Readings of inhibition at 25 µM for the listed compounds
# Test system: HT-29
# ASSAY TEXT: Antiproliferative activity against human HT-29 cells assessed as cell growth inhibition at 25 uM incubated for 72 hrs by MTT assay relative to control
# Type: functional
API: value field is a number in %; no unit string.

Previously resolved entries follow.
INSERT INTO results (compound, assay_system, value_kind, recorded_value) VALUES
  ('O=C1NC(C2CCCC2)Nc2ccccc21 (stereo not given)', 'HT-29', 'inhibition at 25 µM', 22),
  ('O=C1NC(c2ccccc2C(=O)O)Nc2ccccc21 (stereo not given)', 'HT-29', 'inhibition at 25 µM', 37),
  ('COC(=O)c1cccc(/C=C/c2nc3ccccc3c(=O)[nH]2)c1', 'HT-29', 'inhibition at 25 µM', 40),
  ('O=C1NC(CCc2ccccc2)Nc2ccccc21 (stereo not given)', 'HT-29', 'inhibition at 25 µM', 29),
  ('CC(C)(C)c1ccc(C2NC(=O)c3ccccc3N2)cc1 (stereo not given)', 'HT-29', 'inhibition at 25 µM', 79);

// recorded inhibition at 25 µM for O=C1NC(c2cc(O)c(O)c(O)c2)Nc2ccccc21 (stereo not given) : 49

inhibition at 25 µM in this record for O=C(O)c1cccc(C2NC(=O)c3ccccc3N2)c1 (stereo not given) : 24

// field: inhibition at 25 µM; key: COc1cc2c(c(OC)c1OC)-c1ccc(OC)c(=O)cc1[C@@H](NC(C)=O)CC2 ; value = 50

GET /value?item= O=c1[nH]c(-c2ccccc2Br)nc2ccccc12 &field=inhibition at 25 µM returns 15

// field: inhibition at 25 µM; key: O=C(O)c1ccc(C2NC(=O)c3ccccc3N2)cc1 (stereo not given) ; value = 18

# inhibition at 25 µM of O=c1[nH]c(/C=C/c2ccc(Br)cc2)nc2ccccc12 = 94

Record N#Cc1cccc(C2NC(=O)c3ccccc3N2)c1 (stereo not given) , field inhibition at 25 µM: 31

Record COc1ccc(/C=C/c2nc3ccccc3c(=O)[nH]2)cc1 , field inhibition at 25 µM: 78

// inhibition at 25 µM value for N#Cc1ccc(C2NC(=O)c3ccccc3N2)cc1 (stereo not given) : 16

====

# Test system: A-431
# ASSAY TEXT: Antiproliferative activity against human A-431 cells assessed as cell growth inhibition incubated for 72 hrs by MTT assay
# Assay type: functional
VALUE KIND: log10 of GI50 (log10 of the value in nM)
Would you kindly interpret these values as log10 of GI50 expressed in nM?

Here is how some compounds turned out for log10 of GI50.
INSERT INTO assay_data (compound, assay_system, value_kind, recorded_value) VALUES
  ('O=C1NC(c2cccc(Br)c2)Nc2ccccc21 (stereo unspecified)', 'A-431', 'log10 of GI50', 3.43),
  ('Cc1ccc2[nH]cc(-c3nc4ccccc4c(=O)[nH]3)c2c1', 'A-431', 'log10 of GI50', 2.76),
  ('COc1ccc(/C=C/c2nc3ccccc3c(=O)[nH]2)cc1', 'A-431', 'log10 of GI50', 4.52),
  ('O=C1NC(C2CC=CCC2)Nc2ccccc21 (stereo unspecified)', 'A-431', 'log10 of GI50', 3.58);

Turning now to a further compound:
Noted for O=c1[nH]c(/C=C/c2ccc(O)cc2)nc2ccccc12 : its log10 of GI50 reads 2.45

====

# Test system: DU-145
# ASSAY TEXT: Antiproliferative activity against human DU-145 cells assessed as cell growth inhibition at 25 uM incubated for 72 hrs by MTT assay relative to control
# Type: functional
# inhibition at 25 µM per record follows

INSERT INTO results (compound, recorded_value) VALUES
  ('O=C1NC(c2c[nH]c3ccccc23)Nc2ccccc21 (centres undefined)', '≥ 77%');

Form field inhibition at 25 µM, entry O=C1NC(c2cccnc2)Nc2ccccc21 (centres undefined) : < 10%

// inhibition at 25 µM lookup, compound = O=C1NC(c2ccc(-c3ccccc3)cc2)Nc2ccccc21 (centres undefined) , result: > 100%

====

Listed next: entries and their corresponding GI50.
# Tested on: BE(2)-C
# ASSAY TEXT: Antiproliferative activity against human BE2C cells assessed as cell growth inhibition incubated for 72 hrs by MTT assay
# Assay type: functional
Please state the figure in µM; there is no need to write the unit.

Some compounds with known GI50 results, for comparison:
INSERT INTO assay_data (compound, value_kind, recorded_value) VALUES
  ('O=C1NC(CCc2ccccc2)Nc2ccccc21 (stereo unspecified)', 'GI50', 3.6),
  ('O=c1[nH]c(/C=C/c2ccccc2)nc2ccccc12', 'GI50', 0.5),
  ('O=C1NC(c2ccc3ccccc3c2)Nc2ccccc21 (stereo unspecified)', 'GI50', 2.9),
  ('O=C1NC(c2cccc([N+](=O)[O-])c2)Nc2ccccc21 (stereo unspecified)', 'GI50', 19),
  ('O=C1NC(/C=C/c2ccco2)Nc2ccccc21 (stereo unspecified)', 'GI50', 2.6);

Below: the item to evaluate.
Sure, the documented GI50 for O=c1[nH]c(-c2ccc(Br)cc2)nc2ccccc12 is 6.4

====

# ASSAY TEXT: Antiproliferative activity against human SJG2 cells assessed as cell growth inhibition at 25 uM incubated for 72 hrs by MTT assay relative to control
# Format: functional
# CONDITION DETAILS: SJ-G2
Reported values of inhibition at 25 µM for individual entries
// units = %; emit number, no label

INSERT INTO measurements (molecule, value_kind, unit_abbrev, recorded_value) VALUES
  ('O=C1NC(c2cccs2)Nc2ccccc21 (configuration not stated)', 'inhibition at 25 µM', '%', 60),
  ('COc1cccc(/C=C/c2nc3ccccc3c(=O)[nH]2)c1', 'inhibition at 25 µM', '%', 100),
  ('CC(C)(C)c1ccc(C2NC(=O)c3ccccc3N2)cc1 (configuration not stated)', 'inhibition at 25 µM', '%', 46);

Entry O=C(O)c1cccc(C2NC(=O)c3ccccc3N2)c1 (configuration not stated) , inhibition at 25 µM reported as 12

====

# Test system: A2780
# ASSAY TEXT: Antiproliferative activity against human A2780 cells assessed as cell growth inhibition at 25 uM incubated for 72 hrs by MTT assay relative to control
# Type: functional
Would you mind labelling by inhibition at 25 µM? At or over 40% is 1, under is 0.

INSERT INTO assay_data (compound, group) VALUES
  ('N#Cc1ccc(C2NC(=O)c3ccccc3N2)cc1 (stereo not given)', 0);

Kindly determine if inhibition at 25 µM recorded for O=C1NC(c2cc(O)c(O)c(O)c2)Nc2ccccc21 (stereo not given) is above or exactly 40%.
0

Form field: inhibition at 25 µM at least 40%? Entry: CCCCCCCCC1NC(=O)c2ccccc2N1 (stereo not given)
1

Entry COc1ccccc1/C=C/c1nc2ccccc2c(=O)[nH]1 : is its inhibition at 25 µM no less than 40%?
1

Reported inhibition at 25 µM reaches at least 40% for O=C1NC(c2ccc3nsnc3c2)Nc2ccccc21 (stereo not given) ?
1

Hi team, for O=c1[nH]c(/C=C/c2ccccc2)nc2ccccc12 , is the recorded inhibition at 25 µM at or above 40%?
1

Reported inhibition at 25 µM reaches at least 40% for COc1cc2c(c(OC)c1OC)-c1ccc(OC)c(=O)cc1[C@@H](NC(C)=O)CC2 ?
1

====

# ASSAY TEXT: Cytotoxicity against human MCF-10A cells assessed as cell growth inhibition incubated for 72 hrs by MTT assay
# Format: toxicity, cell-based
Lab note: class by GI50 at 72 h, see bottom end (below 3 µM), midrange (3 µM to below 4 µM), top end (4 µM or more)

Past entries and their recorded results:
INSERT INTO measurements (compound, group) VALUES
  ('Cc1ccc2[nH]cc(-c3nc4ccccc4c(=O)[nH]3)c2c1', 'bottom end'),
  ('Cc1ccc(C2NC(=O)c3ccccc3N2)cc1 (centres undefined)', 'midrange');

Each compound maps to one class by GI50 at 72 h. Which class for O=C1NC(/C(Br)=C/c2ccccc2)Nc2ccccc21 (centres undefined) ?
bottom end

Band for the recorded GI50 at 72 h of O=C1NC(c2cccc(C(F)(F)F)c2)Nc2ccccc21 (centres undefined) ?
midrange

Into which bin does this compound go? O=c1[nH]c(/C=C/c2cccc(O)c2)nc2ccccc12
midrange

Band for the recorded GI50 at 72 h of O=C1NC(c2ccc(-c3ccccc3)cc2)Nc2ccccc21 (centres undefined) ?
bottom end

Quick check: band for COc1cccc(C2NC(=O)c3ccccc3N2)c1 (centres undefined)
midrange

Which of the defined bands does the recorded GI50 at 72 h of COc1ccccc1/C=C/c1nc2ccccc2c(=O)[nH]1 sit within?
bottom end

Lab note: sort COc1ccc(/C=C/c2nc3ccccc3c(=O)[nH]2)cc1 into the matching GI50 at 72 h band.
top end

Lab log: Cc1ccc(/C=C/c2nc(O)c3ccccc3n2)cc1 — assign GI50 at 72 h category
midrange

For the record O=c1[nH]c(/C=C/c2ccc(O)cc2)nc2ccccc12 , report the class its GI50 at 72 h corresponds to.
bottom end

Band assignment needed for O=C1NC(/C=C/c2ccco2)Nc2ccccc21 (centres undefined) please.
midrange

GET /class?item= O=C1NC(c2ccc(O)cc2)Nc2ccccc21 (centres undefined)
top end

State the band of O=C1NC(c2ccc3ccccc3c2)Nc2ccccc21 (centres undefined)
midrange

Bin this entry: O=C1NC(c2ccccc2Br)Nc2ccccc21 (centres undefined)
top end

Would you mind sorting N#Cc1ccc2[nH]cc(-c3nc4ccccc4c(=O)[nH]3)c2c1 into the appropriate category?
midrange

Bin this entry: CCCCCCCCC1NC(=O)c2ccccc2N1 (centres undefined)
top end

Each compound maps to one class by GI50 at 72 h. Which class for O=C1NC(CCc2ccccc2)Nc2ccccc21 (centres undefined) ?
top end
